From: patent US7767679B2

Target: histone deacetylase (HeLa nuclear extracts)
Experiment: In vitro assay for inhibition of histone deacetylase
Type: biochemical
Conditions: HeLa nuclear extracts 60 μg/ml, [3H]acetylated histone H4 peptide substrate, 30 min
Description: The in vitro assay for inhibition of histone deacetylase (see example C.1) measures the inhibition of HDAC enzymatic activity obtained with the compounds of formula (I). HeLa nuclear extracts (supplier: Biomol) were incubated at 60 μg/ml with 2×10^−8 M of radiolabeled peptide substrate. […] After mixing and centrifugation, the radioactivity in an aliquot of the upper (organic) phase was counted in β-counter. […]
Below is a list of entries, each paired with its recorded Enzyme activity pIC50 value.

Look over these answered cases.
{"COMPOUND": "O=C(NO)c1cnc(N2CCC(CNS(=O)(=O)c3ccc(-c4ccccc4)cc3)CC2)nc1", "TARGET UNDER TEST": "histone deacetylase (HeLa nuclear extracts)", "RESULT": 8.199}
{"COMPOUND": "O=C(NO)c1cnc(N2CCC(NS(=O)(=O)c3ccc4ccccc4c3)C2)nc1 (centres unmarked)", "TARGET UNDER TEST": "histone deacetylase (HeLa nuclear extracts)", "RESULT": 7.857}
{"COMPOUND": "O=C(NO)c1cnc(N2CCC(CNS(=O)(=O)N3CCOCC3)CC2)nc1", "TARGET UNDER TEST": "histone deacetylase (HeLa nuclear extracts)", "RESULT": 7.074}

Query: Please give the measured Enzyme activity pIC50 for this compound: `O=C(NO)c1cnc(N2CCC(CNS(=O)(=O)c3ccccc3-c3cccc(CO)c3)CC2)nc1`
Reply: 7.341

Query: Subsequent entry: CN(C1CCN(c2ncc(C(=O)NO)cn2)C1)S(=O)(=O)c1ccc2ccccc2c1 (centres unmarked)
Reply: 7.49

Query: Subsequent entry: `COc1ccc(-c2ccccc2S(=O)(=O)NCC2CCN(c3ncc(C(=O)NO)cn3)CC2)cc1`
Reply: 7.371

Query: Subsequent entry: `O=C(Nc1ccc(N2CCC(NS(=O)(=O)c3ccc4ccccc4c3)CC2)cc1)/C(Cc1ccccc1)=N/O`
Reply: <5

Query: Subsequent entry: `O=C(NO)c1ccc(N2CCC(NS(=O)(=O)c3ccc4ccccc4c3)CC2)nc1`
Reply: 7.438

---

Target: histone deacetylase (HeLa nuclear extracts)
Experiment: In vitro assay for inhibition of histone deacetylase
Format: biochemical
Details: HeLa nuclear extracts 60 μg/ml, [3H]acetylated histone H4 peptide substrate, 30 min
Below is a list of entries, each paired with its recorded Enzyme activity pIC50 value.
Just the number, please, no unit after it.

{"MOLECULE": "O=C(NO)c1ccc(N2CCCC(NS(=O)(=O)c3ccc4ccccc4c3)CC2)nc1 (centres unmarked)", "TARGET UNDER TEST": "histone deacetylase (HeLa nuclear extracts)", "Enzyme activity pIC50": 6.893}
{"MOLECULE": "O=C(NO)c1cnc(N2CCC(CNS(=O)(=O)c3ccc4ccccc4c3)CC2)nc1", "TARGET UNDER TEST": "histone deacetylase (HeLa nuclear extracts)", "Enzyme activity pIC50": 8.123}
{"MOLECULE": "O=C(NO)c1ccc(N2CCC(NS(=O)(=O)c3ccc4ccccc4c3)C2)cc1 (centres unmarked)", "TARGET UNDER TEST": "histone deacetylase (HeLa nuclear extracts)", "Enzyme activity pIC50": 6.293}
{"MOLECULE": "O=C(NO)c1cnc(N2CCC(NS(=O)(=O)c3ccc4ccccc4c3)CC2)nc1", "TARGET UNDER TEST": "histone deacetylase (HeLa nuclear extracts)", "Enzyme activity pIC50": 6.104}
{"MOLECULE": "O=C(NO)c1cnc(N2CCC(NS(=O)(=O)N3CCOCC3)CC2)nc1", "TARGET UNDER TEST": "histone deacetylase (HeLa nuclear extracts)", "Enzyme activity pIC50": 6.449}
{"MOLECULE": "O=C(NO)c1ccc(N2CCC(NS(=O)(=O)c3ccc(-c4ccccc4)cc3)CC2)nc1", "TARGET UNDER TEST": "histone deacetylase (HeLa nuclear extracts)", "Enzyme activity pIC50": 7.413}

Now take the following molecule into account.
Query: Please give the measured Enzyme activity pIC50 for this molecule: `Cc1cccc(-c2ccccc2S(=O)(=O)NCC2CCN(c3ncc(C(=O)NO)cn3)CC2)c1`
Reply: 7.126
